- measurementTarget: T1, CRBN, Q96SW2;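 further: pooled lentiviral library of zinc finger degron-EGFP fusions in mCherry-positive Jurkat cells, FACS-sorted after compound exposure, with degron abundance counted by next-generation sequencing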
- T1 chain: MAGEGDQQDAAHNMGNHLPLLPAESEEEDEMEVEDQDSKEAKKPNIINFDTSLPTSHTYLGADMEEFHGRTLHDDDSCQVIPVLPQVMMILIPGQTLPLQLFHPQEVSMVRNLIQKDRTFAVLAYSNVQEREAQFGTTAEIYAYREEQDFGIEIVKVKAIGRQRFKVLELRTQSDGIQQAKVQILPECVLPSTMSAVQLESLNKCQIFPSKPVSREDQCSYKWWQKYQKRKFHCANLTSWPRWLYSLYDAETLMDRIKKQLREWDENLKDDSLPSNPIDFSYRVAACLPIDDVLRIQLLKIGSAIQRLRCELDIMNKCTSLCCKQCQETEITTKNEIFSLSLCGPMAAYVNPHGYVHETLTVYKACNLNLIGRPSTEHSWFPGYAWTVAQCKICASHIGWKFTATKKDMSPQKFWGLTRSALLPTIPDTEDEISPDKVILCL
- methodNotes: log2 fold change of degron read counts, EGFP-low vs EGFP+ sorted cells (limma voom), compound-induced degradation; higher = more compound-induced degradation of the degron-EGFP fusion; degrons are variants of IKZF1/3 zinc finger 2; compound dose not given here
- conditionInfo: Jurkat; 18 h; compound: compound 33 (diphenyl IMiD analogue)
Over roughly 8,300 sequences, “log2 fold change of degron read counts, EGFP-low vs EGFP+ sorted cells (limma voom), compound-induced degradation” has its median near -1.1; the highest 2% begin near 3.2. What follows is part of a selection rich in the highest values, with near analogues and random picks from the rest.
Output: class label from log2 fold change of degron read counts. Mapping: group A = under -1, group B = from -1 up to 2, group C = 2 and over

{"constructSequence": "FFCPICGACFTQKGNLLRHIKL [46F_47F_49P_50I_52G_53A_54C_55F_67L_, Q9UKT9]", "assignedLabel": "group C"}
{"constructSequence": "FFCPICGHEFTQKGNLLRHIKL [46F_47F_49P_50I_52G_53H_54E_55F_67L_, Q9UKT9]", "assignedLabel": "group A"}
{"constructSequence": "FWCPQCGATFTQKGNLLRHIKL [46F_47W_49P_50Q_52G_53A_54T_55F_67L_, Q9UKT9]", "assignedLabel": "group B"}
{"constructSequence": "FRCPQCGADFTQKGNLLRHIKL [46F_47R_49P_50Q_52G_53A_54D_55F_67L_, Q9UKT9]", "assignedLabel": "group B"}
{"constructSequence": "FYCEVCGAVFTQKGNLLRHIKL [46F_47Y_49E_50V_52G_53A_54V_55F_67L_, Q9UKT9]", "assignedLabel": "group C"}
{"constructSequence": "FKCEQCGAVFTQKGNLLRHIKL [46F_47K_49E_50Q_52G_53A_54V_55F_67L_, Q9UKT9]", "assignedLabel": "group A"}
{"constructSequence": "FVCEICGRMFTQKGNLLRHIKL [46F_47V_49E_50I_52G_53R_54M_55F_67L_, Q9UKT9]", "assignedLabel": "group B"}
{"constructSequence": "FHCPICGHHFTQKGNLLRHIKL [46F_47H_49P_50I_52G_53H_54H_55F_67L_, Q9UKT9]", "assignedLabel": "group A"}
{"constructSequence": "FLCPVCGAHFTQKGNLLRHIKL [46F_47L_49P_50V_52G_53A_54H_55F_67L_, Q9UKT9]", "assignedLabel": "group B"}
{"constructSequence": "FKCPICGACFTQKGNLLRHIKL [46F_47K_49P_50I_52G_53A_54C_55F_67L_, Q9UKT9]", "assignedLabel": "group A"}
{"constructSequence": "FSCEICGREFTQKGNLLRHIKL [46F_47S_49E_50I_52G_53R_54E_55F_67L_, Q9UKT9]", "assignedLabel": "group A"}
{"constructSequence": "FQCNQCGHIFTQKGNLLRHIKL [46F_47Q_49N_50Q_52G_53H_54I_55F_67L_, Q9UKT9]", "assignedLabel": "group A"}
{"constructSequence": "FGCPICGACFTQKGNLLRHIKL [46F_47G_49P_50I_52G_53A_54C_55F_67L_, Q9UKT9]", "assignedLabel": "group C"}
{"constructSequence": "FMCEVCGAVFTQKGNLLRHIKL [46F_47M_49E_50V_52G_53A_54V_55F_67L_, Q9UKT9]", "assignedLabel": "group C"}
{"constructSequence": "FECPICGACFTQKGNLLRHIKL [46F_47E_49P_50I_52G_53A_54C_55F_67L_, Q9UKT9]", "assignedLabel": "group C"}
